So I've got MIC readings for Escherichia coli DC-2, take a look.

Query MIC on Escherichia coli DC-2 for "C=CCN(C)[C@H]1C[C@@H](C)O[C@@H](O[C@@H]2[C@@H](C)C(=O)[C@@H](C)C(=O)O[C@H](CC)[C@@]3(C)OC(=O)N[C@@H]3[C@@H](C)C(=O)[C@H](C)C[C@@]2(C)OCC=Cc2cnc3ccccc3c2)[C@@H]1O"
100 µg/mL

# repeat for CC[C@H]1OC(=O)[C@H](C)C(=O)[C@H](C)[C@@H](O[C@@H]2O[C@H](C)C[C@H](N(C)C3CC3)[C@H]2O)[C@](C)(OCC=Cc2cnc3ccccc3c2)C[C@@H](C)C(=O)[C@H](C)[C@H]2NC(=O)O[C@@]21C [Example 20]
> 100 µg/mL

# repeat for "CC[C@H]1OC(=O)[C@H](C)C(=O)[C@H](C)[C@@H](O[C@@H]2O[C@H](C)C[C@H](N(C)Cc3ccccc3)[C@H]2O)[C@](C)(OCC=Cc2cnc3ccccc3c2)C[C@@H](C)C(=O)[C@H](C)[C@H]2NC(=O)O[C@@]21C"
> 100 µg/mL

# repeat for "CCOC(=O)CN(C)[C@H]1C[C@@H](C)O[C@@H](O[C@@H]2[C@@H](C)C(=O)[C@@H](C)C(=O)O[C@H](CC)[C@@]3(C)OC(=O)N[C@@H]3[C@@H](C)C(=O)[C@H](C)C[C@@]2(C)OCC=Cc2cnc3ccccc3c2)[C@@H]1O"
> 100 µg/mL
